Tested on: proliferating apocrine cultures (ASG5)
Assay: Short circuit current (Isc) in Ussing chamber, proliferating apocrine cultures on Transwells
Type: cell-based, human
Conditions: Homo sapiens; apical amiloride; read-out: IC50 for amiloride (dose response curves, resting Isc)
Experimental: After 13-18 days, confluent ASG5 cultures were passaged onto Transwell collagen-coated permeable supports (0.33 cm^2 area, Costar, cat. no. 3495, High Wycombe, Bucks, UK). This involved incubation in 2% EDTA for 20 minutes, followed by trypsin (0.5%)-EDTA (0.2%) for approximately five minutes. […] Transepithelial resistance (TER) across epithelia on Transwells was monitored using ‘chopstick’ electrodes (WPI, Alresford, Hants, UK) connected to an ohmmeter. […]
pIC50: −log10 of the molar value.
parameter.measured: pIC50

Exercise: Param item = N=C(N)NC(=O)c1nc(Cl)c(N)nc1N [Amiloride] ; retrieve measured pIC50.
Key: 5.40 to 5.70
